- protocol.notes: yeast display, Sf9 membrane polyspecificity reagent, FACS + sequencing; frameworks hold sequencing errors
attribute.measured: polyreactivity (PSR sort gate)

Answered examples (4):
QVQLVESGGGLVQAGGSLRLSCAASGRIFYLKAMGWYRQAPGTERELVAAINTSGDSTYYADSVKGRFTISRDNAKNTVDLQMNSLKPEDTAVSYCAAYVIGPDQFIYDYWGQGTQVTVSS: low polyreactivity
QVQLVESGGGLVQAGGSLRLSCAASGSISGYYAMGWYRQAPGKERELVASIRYTGARTYYADSVKGRFTISRDNAKNTVYLQMNSLKPEDTAVYYCAADFKRDRVWGGDYWGQGTQVTVSS: low polyreactivity
QVQLVESGGGLVQAGGSLRLSCAASGITFILNPMGWNRQAPGKEREFVAAISTSGGNTYYADSVKGRFTISRDYAKYTVYLEMNSLKPEDTAVYYCNADWGVVYISYSPEYDYWGHGTQVTVSS: low polyreactivity
QVQLVESGGGLVQAGGSLRLSCAASGSTFTYYAMGWYRQAPGKERELVAAISSNGGSTSYADSVKGRFTISRDNAKNTVYLPMNRLKPEDTAVYYCAVYKWSTRVSQYRYDYWGQGTQVTVSS: high polyreactivity

For the next question, use this sequence.
(Q) Need polyreactivity (PSR sort gate) of QVQLVESGGGLVQAGGSLRLSCAASGSTVWKYVMGWYRQAPGKERELVAAISNSGVNTYYADSVKGRFTISRDNAKNTVYLQMNSLKTEDTAVYYCAADRGGYEYWGQGTQVTVSS , thanks.
(A) high polyreactivity

###

- protocol.notes: yeast display, Sf9 membrane polyspecificity reagent, FACS + sequencing; frameworks hold sequencing errors
attribute.measured: polyreactivity (PSR sort gate)

QVQLVESGGGLVQAGGSLRLSCAASVFTFAPNAMGWYRQAPGKERELVAVIDSGGSTNYADSVKGRFTISRDNAKNTVYLQMNSLKPEDTAVYYCATDVPLDYYWLWDDYWGQGTQVTVSS: low polyreactivity
QVQLVESGGGLVQAGGSLRLSCAASGIIFTDNAMGWYRQAPGKERELVATISWSTDNTYYADSVKGRFTISRDNAKNTVYLQMNSLKPEDTAVYYCAAEEYYAYWYQYDYWGQATQVTVSS: low polyreactivity

###

- protocol.notes: yeast display, Sf9 membrane polyspecificity reagent, FACS + sequencing; frameworks hold sequencing errors
attribute.measured: polyreactivity (PSR sort gate)

Answered examples (5):
QVQLVESGGGLVQAGGSLRLSCAASGSTFDANAMGWYRQAPGKERELVADITVRDGSTYYADSVKGRFTISRDNAKNTVYLQMNSLKPEDTAVYYCNAGRYTGGYSPGYGYWGLGTQVTVSS: low polyreactivity
QVQLVESGGGLVQAGGSLRLSCAASGRIFGPYTMGWYRPAPGKEREFVAAISRSGDSTYYADSVKGRFTISRDNAKNTVYLHMNSLKPADTAVYYCAAKYGTRLTAYYYWGQGTQVTVSS: high polyreactivity
QVQLVESGGGLVQAGGSLRLSCAASGSTFPWYAMGWYRQAPGKEREVVAAISSSGGSTYYADSVKGRFTISRDKAKNTVYLQMNSLKPEDTAVYYCNAQHPGYYWGYDYWGQGTQVTVSS: high polyreactivity
QVQLVESGGGLVQAGGSLRLSCAASGITFSRNTMGWYRQAPGKERELVAAISRSGASTYYADSVKGRFTISRDNAKNTVYLQMNSLKPEDTAVYYCAARFHYPGGPRYYYWGQGTQVTVSS: high polyreactivity
QVQLVESGGGLVQAGGSLRLSCAASGSTFVPNAMGWYRQAPGKEREFVAAIRVSCDNTYYADSVKGRFTISRDNAKNTDYLQMNSLKPEDTAVYYCAATGTVLGSVDYWGQGSQVTVSS: low polyreactivity

Would you mind giving polyreactivity (PSR sort gate) for every sequence in the list below?
1. QVQLVESGGGLVQAGGSLRLSCAASGIIFAYYARRWYRHAPGKERELVAAISWSGTSTYYADSVKGRFTISRDNAKNTVYLQMNSLKPEDTAVYYCNAYGLYSDMDYWGQGTQVTVSS
2. QVQLVESGGGLVQAGGSLRLSCAASGRTFGYNAMGWYSQAPGKERELVAAISRSGGRTYYADSVKGRFTISRDNAKNTVYLQMNSLKPEDTAVYYCAAESYHRGYDYWGQGTQVTLSS
3. QVQLQESGGGLVQAGASLRLSCAASGSIYDDTYMGSYRQAPGKERELVATIDSGSTTNYADSVKGRITISRDNEKNTVYLQMNSLKPEDSAVYYCAAADSHIDYFDYWGQGTQVTVSS
4. QVQLVESGGCIVQAGGSLRLSCAASGLIFGPYAMGWYRQAPGKERELVAAISARGGSTYYADSVKGRFTISRDNAKNTVYLQMNSLKPEDTAVYYCAARQYSVNTHYGYNYWGQGTQVTVSS
5. QVQHVESGGGLVQAGGSLRLSCAASGSILGGNAMGWYRQAPGKERELVADISGSGDSTYYADSVKGRFTISRDNAKNTVYLQMNSLKPEETAVYYCAVDYDSYWYGTYVNEYDYWGQGTQVTVSS
6. QVQLVESGGGLVQAGGSLRLSCAASGSIFSPYAMGWYRQAPGKERELVAAISYGVGNTYYADSVKGRFTISRDNAKNTVYLQMNSLKPEDTAVYYCAAEEYDYVYPHYFTKGYYWGQGTQVTVSS
7. QVQLVESGGGLVQAGGSLRLSCAASGSIFAVYAMGWYRQAPGKERELVASITNDGSTYADSVKGRFTISRDNAKNTVYLQINSQKPEDTAVYYCNADYLTYFTTFDYWGQGTQVTVSS
8. QVQLVESGGGLVQAGGSLRLSCAASGRTFLPNAMGWYRQAPGKERELVAVITSGGSTNYADSVKGRFTISRDNAKNTVYLQMNSLKQEDTAVYYCAARRWSSSQGHWGKSAGYGYWGQGTQVTVSS

(A)
1: high polyreactivity; 2: high polyreactivity; 3: low polyreactivity; 4: high polyreactivity; 5: low polyreactivity; 6: high polyreactivity; 7: low polyreactivity; 8: low polyreactivity

Would you mind giving polyreactivity (PSR sort gate) for every sequence in the list below?
1. QVQLVESVGGLVQAGGSLRLSCAASGSIFGPNAMGWYRQAPGKERELVAAISLSTGSTYYADSVKGRFTISRDTAKNTVYLQMNSLKPEDTAVYYCAAYYVTPIYYYWGQGTQVTVSS
2. QVQLVESGGGLVQAGGSLRLSCAASGFTFRSNAMGWYRQAPGKARELVAAISYSGDSTYYADSVKGRFTISRDTAKNTVYLQMNSLKPEDTAVYYCAADGYDQWGRVGVYLIWTSYDYWGQGTQVTVSS
3. QVQLVESGGGLVQAGGSLRLSCAASGLIFTWNAMGWYRQAPGKERELVAAISTGGSTSYADSVKGRFTISRDNAKNTVYLQMNSLKPEDTAVYYCARDSSIWSHGSWYDYWGQGTQVTVSS
4. QVQLVESGGGLVQAGGSLRLSCAASGSIFYTYVMGWYRQAPGKVREFVAAISKSGGSTYYADSVKGRFTISRDNAKNPVYLQMNSLIPEVTAVYYCAAYPIVSIQRRARGNSWGQGTQVTVSS
5. QVQLVESGGGLVQAGGSLRLICDASGRTFTDNAMGLYRQAPGKERELVAAISSSGDFYAESVKGRFTISRDNAQNTVYLQMNSLKPEDTAVYYCAARVWRYYYQSRFYYWGQGTQVTVSS

(A)
1. low polyreactivity
2. high polyreactivity
3. low polyreactivity
4. high polyreactivity
5. high polyreactivity

Would you mind giving polyreactivity (PSR sort gate) for every sequence in the list below?
1. QVQLVESVGGLVQAGGSLRLSCAASGSIFYDNGMGWYRQAPGNERELVAAISRGGTTNYADSVKGRFTISRDKAKNTVYLQMNSLKPEDTAVYYCNAETRFTYWGSWYDYWGQGTQVTVSS
2. QVQLVESGGGLVQAGGSLRLSCAASGRTFWRYAMGWYRQAPGKERELVAAISSGGRTNYADSVKGRFTISRDNAKNTVYLQMNSLKPEDTAVYYCAVKTVRSSSRNYWGQGTQVTVSS
3. QVQLVESGGGLVQAGGSLRLSCAASGRIFDGNTMGWYRQAPGKERELVAAITYSGGRTSYADSVKGRFTISRDNAKNTVYLQMNSLKPEDTAVYYCNARVVTGSWYEGYYWGQGTQVTVSS

(A)
low polyreactivity
high polyreactivity
low polyreactivity
